Where do these numbers come from? They come from ChEMBL document CHEMBL5550107.

# Target under test: Protein Aster-A (Homo sapiens)
# Sequence (Q96CP6 whole entry): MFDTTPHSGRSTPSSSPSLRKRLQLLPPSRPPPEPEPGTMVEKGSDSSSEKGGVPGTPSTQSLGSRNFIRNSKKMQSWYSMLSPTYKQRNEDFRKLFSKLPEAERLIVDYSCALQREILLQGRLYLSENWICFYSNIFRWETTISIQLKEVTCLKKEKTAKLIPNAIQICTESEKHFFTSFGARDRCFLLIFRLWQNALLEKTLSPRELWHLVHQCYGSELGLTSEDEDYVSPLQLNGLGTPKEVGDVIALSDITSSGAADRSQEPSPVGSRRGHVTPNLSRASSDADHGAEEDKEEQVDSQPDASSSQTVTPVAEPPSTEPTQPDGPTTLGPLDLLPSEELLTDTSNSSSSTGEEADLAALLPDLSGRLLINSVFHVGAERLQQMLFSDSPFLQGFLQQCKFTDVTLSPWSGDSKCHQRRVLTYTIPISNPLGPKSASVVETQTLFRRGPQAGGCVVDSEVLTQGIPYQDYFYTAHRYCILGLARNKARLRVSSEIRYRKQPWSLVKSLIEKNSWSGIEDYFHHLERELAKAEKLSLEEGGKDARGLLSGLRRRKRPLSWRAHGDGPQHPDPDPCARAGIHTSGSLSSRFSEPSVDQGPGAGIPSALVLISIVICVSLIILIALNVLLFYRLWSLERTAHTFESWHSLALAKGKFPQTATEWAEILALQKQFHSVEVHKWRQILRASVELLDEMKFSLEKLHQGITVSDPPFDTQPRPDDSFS
# Method description: Binding affinity to aster A (unknown origin) by fluorescence polarization method
pKd: −log10 of the molar value.
Readout type: pKd

Observe how each entry below is paired with its result.
- Compound: "CC(C)(C)OC(=O)N1CCC2N=C(NC(=O)c3ccc(C(=O)NCCCOCCOCCOCCCNc4cccc5c4C(=O)N(C4CCC(=O)NC4=O)C5=O)cc3)SC2C1 (centres undefined)"
  Quantitative readout: 7.17
- Compound: "CC(C)(C)OC(=O)N1CCC2N=C(NC(=O)c3ccc(C(=O)NCCCCCCNc4cccc5c4C(=O)N(C4CCC(=O)NC4=O)C5=O)cc3)SC2C1 (centres undefined)"
  Quantitative readout: 6.13
- Compound: "CC(C)(C)OC(=O)N1CCC2N=C(NC(=O)c3ccc(C(=O)NCCCOCCOCCCNc4cccc5c4C(=O)N(C4CCC(=O)NC4=O)C5=O)cc3)SC2C1 (centres undefined)"
  Quantitative readout: 7.43
- Compound: "CC(C)(C)OC(=O)N1CCC2N=C(NC(=O)c3ccc(C(=O)NCCOCCOCCNc4cccc5c4C(=O)N(C4CCC(=O)NC4=O)C5=O)cc3)SC2C1 (centres undefined)"
  Quantitative readout: 6.83

1: CC(C)(C)OC(=O)N1CCC2N=C(NC(=O)c3ccc(C(=O)NCCOCCOCCOCCNc4cccc5c4C(=O)N(C4CCC(=O)NC4=O)C5=O)cc3)SC2C1 (centres undefined)
2: CC(C)(C)OC(=O)N1CCC2N=C(NC(=O)c3ccc(C(=O)NCCCOCCCCOCCCNc4cccc5c4C(=O)N(C4CCC(=O)NC4=O)C5=O)cc3)SC2C1 (centres undefined)
// task: argmin of pKd over [ 1 , 2 ] Your answer should be the label of the entry you select.
2
